- TESTED ON: Voltage-gated inwardly rectifying potassium channel KCNH2 (Homo sapiens, UniProt Q12809); further: assay procedure not described here
- Sequence (Q12809 whole entry): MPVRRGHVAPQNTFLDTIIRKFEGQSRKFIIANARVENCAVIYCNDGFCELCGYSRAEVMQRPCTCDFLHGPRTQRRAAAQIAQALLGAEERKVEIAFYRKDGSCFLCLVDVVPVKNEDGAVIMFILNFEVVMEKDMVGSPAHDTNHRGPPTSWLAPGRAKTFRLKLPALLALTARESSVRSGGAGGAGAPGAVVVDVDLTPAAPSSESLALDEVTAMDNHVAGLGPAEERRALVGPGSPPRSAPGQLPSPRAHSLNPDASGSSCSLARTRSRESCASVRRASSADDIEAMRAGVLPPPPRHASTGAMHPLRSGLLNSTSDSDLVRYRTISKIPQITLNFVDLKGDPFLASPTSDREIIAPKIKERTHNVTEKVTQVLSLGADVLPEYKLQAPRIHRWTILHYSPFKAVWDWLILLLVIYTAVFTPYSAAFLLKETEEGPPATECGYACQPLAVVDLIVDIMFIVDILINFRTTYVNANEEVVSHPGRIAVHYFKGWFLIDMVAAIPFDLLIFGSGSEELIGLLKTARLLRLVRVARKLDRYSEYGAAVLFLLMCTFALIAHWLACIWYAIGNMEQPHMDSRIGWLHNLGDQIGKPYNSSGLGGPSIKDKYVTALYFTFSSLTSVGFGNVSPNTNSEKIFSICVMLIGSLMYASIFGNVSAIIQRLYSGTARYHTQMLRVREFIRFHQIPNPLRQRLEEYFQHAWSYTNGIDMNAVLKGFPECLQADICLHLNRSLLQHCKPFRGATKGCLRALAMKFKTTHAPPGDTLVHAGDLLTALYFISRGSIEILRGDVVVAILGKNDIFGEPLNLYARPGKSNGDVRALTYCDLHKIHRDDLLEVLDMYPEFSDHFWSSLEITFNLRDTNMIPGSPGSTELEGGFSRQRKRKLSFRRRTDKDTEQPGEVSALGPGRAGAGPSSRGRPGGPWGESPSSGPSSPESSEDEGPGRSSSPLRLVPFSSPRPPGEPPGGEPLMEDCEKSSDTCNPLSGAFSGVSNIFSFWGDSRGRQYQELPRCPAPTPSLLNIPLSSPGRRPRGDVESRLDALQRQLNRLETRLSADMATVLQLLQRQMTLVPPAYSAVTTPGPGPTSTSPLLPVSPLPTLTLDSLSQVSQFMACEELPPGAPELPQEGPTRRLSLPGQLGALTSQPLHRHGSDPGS
- Type: functional
METRIC: AC50

                                   compound                                 tested_on  value_measured
0  Cc1nnc(SCC2=C(C(=O)O)N3C(=O)[C@@H](NC(=O)Cn4cnnn4)[C@H]3SC2)s1  Voltage-gated inwardly rectifying potassium channel KCNH2 (Homo sapiens, UniProt Q12809)        > 300 µM
1      Clc1ccc(Cn2c(CN3CCCC3)nc3ccccc32)cc1  Voltage-gated inwardly rectifying potassium channel KCNH2 (Homo sapiens, UniProt Q12809)         0.86 µM
2  COc1ccccc1OC1(C)OC(=O)c2ccccc2O1 (centres undefined)  Voltage-gated inwardly rectifying potassium channel KCNH2 (Homo sapiens, UniProt Q12809)         > 30 µM
3             CCC1(CCC(C)C)C(=O)NC(=O)NC1=O  Voltage-gated inwardly rectifying potassium channel KCNH2 (Homo sapiens, UniProt Q12809)         > 30 µM
4  O=C1c2cccc3c2[C@H](CCC3)CN1[C@@H]1CN2CCC1CC2  Voltage-gated inwardly rectifying potassium channel KCNH2 (Homo sapiens, UniProt Q12809)         0.89 µM
5  CCOC(=O)C(C)(C)Oc1ccc(Cl)cc1 [CLOFIBRATE]  Voltage-gated inwardly rectifying potassium channel KCNH2 (Homo sapiens, UniProt Q12809)         > 30 µM
6  O=C1Nc2ccc(Cl)cc2C(c2ccccc2Cl)=NC1O (centres undefined)  Voltage-gated inwardly rectifying potassium channel KCNH2 (Homo sapiens, UniProt Q12809)         > 30 µM
7         CCCN1CCCC[C@H]1C(=O)Nc1c(C)cccc1C  Voltage-gated inwardly rectifying potassium channel KCNH2 (Homo sapiens, UniProt Q12809)         > 30 µM
8  CN(Cc1cnc2nc(N)nc(N)c2n1)c1ccc(C(=O)N[C@@H](CCC(=O)O)C(=O)O)cc1 [METHOTREXATE]  Voltage-gated inwardly rectifying potassium channel KCNH2 (Homo sapiens, UniProt Q12809)         > 30 µM

---

Recorded AC50, one value per entry.
- TESTED ON: Alpha-1A adrenergic receptor (Homo sapiens, UniProt P35348); further: assay procedure not described here
- Sequence (P35348 whole entry): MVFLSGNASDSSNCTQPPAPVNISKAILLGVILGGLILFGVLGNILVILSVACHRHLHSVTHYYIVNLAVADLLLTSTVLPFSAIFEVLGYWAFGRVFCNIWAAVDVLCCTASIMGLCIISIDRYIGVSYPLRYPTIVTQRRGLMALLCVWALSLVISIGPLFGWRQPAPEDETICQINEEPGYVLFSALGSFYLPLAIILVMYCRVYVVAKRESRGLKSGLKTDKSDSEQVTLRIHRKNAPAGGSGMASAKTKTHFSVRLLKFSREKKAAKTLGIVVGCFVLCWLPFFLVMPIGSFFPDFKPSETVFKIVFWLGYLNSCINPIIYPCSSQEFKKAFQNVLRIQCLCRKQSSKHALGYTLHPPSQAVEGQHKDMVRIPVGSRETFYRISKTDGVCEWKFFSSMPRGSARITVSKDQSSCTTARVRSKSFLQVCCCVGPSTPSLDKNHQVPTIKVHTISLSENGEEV
- Format: functional, cell-based
METRIC: AC50

>>> print(df.to_string())
                                   compound  metric  value_measured
0        CC(=O)Nc1ccc(CC(=O)O)cc1 [ACTARIT]    AC50         > 30 µM
1  Cn1c(=O)c2c(ncn2CCOC(=O)C(C)(C)Oc2ccc(Cl)cc2)n(C)c1=O [THEOFIBRATE]    AC50         > 30 µM
2  CCOc1nc2cccc(C(=O)O)c2n1Cc1ccc(-c2ccccc2-c2nnn[nH]2)cc1    AC50         > 30 µM
3  CN(CCOc1ccc(CC2SC(=O)NC2=O)cc1)c1ccccn1 (centres undefined) [ROSIGLITAZONE]    AC50           11 µM
4  COc1cc(C(=O)NC2CCCNC2)cc(OC)c1OC (centres undefined) [TROXIPIDE]    AC50         > 30 µM
5  O=C1Nc2ccc(Cl)cc2C(c2ccccc2Cl)=NC1O (centres undefined) [LORAZEPAM]    AC50         > 30 µM
6  O=C(CCCN1CCC(O)(c2ccc(Br)cc2)CC1)c1ccc(F)cc1 [BROMPERIDOL]    AC50         0.28 µM
7  CO/N=C(\C(=O)N[C@@H]1C(=O)N2C(C(=O)O)=CCS[C@H]12)c1csc(N)n1 [CEFTIZOXIME]    AC50         > 30 µM
8  CC(CN1c2ccccc2Sc2ccccc21)N(C)C (centres undefined) [PROMETHAZINE]    AC50          1.7 µM
